Where do the numbers come from? From PubChem BioAssay (NCI).

# assay.procedure: NCI Yeast Anticancer Drug Screen. Data for the rad50 strain (AID 155);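 further: 0% = growth of vehicle-only cultures of the same strain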
# condition.context: S. cerevisiae rad50 strain growth inhibition; at 3.7 µM; hits give high values
The panel holds about 79,000 compounds, 15% with a hit somewhere; the sample as a whole holds those more often.
Recorded measurements of growth inhibition, one per entry
Report as a plain number; the unit % is understood.

Below, 5 compounds whose answers are already recorded.
* C(=C\c1ccccc1)/COc1ccccc1C(N1CCOCC1)n1nc2ccccc2n1 (centres undefined) | -21
* C/C(=N\NC(=S)N1CCCCC1)c1cccc(C)n1 | 94
* Oc1ccc(NCn2c(=S)sc3ccccc32)cc1 | 12
* O=C1C=CC(=Nc2ccc3c(c2)Cc2cc(NC(=O)C(F)(F)F)ccc2-3)O1 | 7
* CCC/C(Cl)=N\OC(=O)Nc1cccc(C(F)(F)F)c1 | 14

Data request: Would you kindly share the measured growth inhibition for "CC(=O)Cc1ccc[cH-]1.[Fe+2].c1cc[cH-]c1" ?
Data returned: 24

Data request: Looking for the measured growth inhibition of "COC(=O)c1cc(-c2ccc(C)cc2)[nH]c(=O)c1C#N" , can you help?
Data returned: -2

Data request: So what does the record say about growth inhibition for "CC(C)NC(=O)OCc1c(COC(=O)NC(C)C)c(-c2ccc(Cl)c(Cl)c2)n2c1CCC2" ?
Data returned: -29

Data request: Fill blank: measured growth inhibition of the compound "O=C(CCCN1CCC(O)(c2ccc(Cl)cc2)CC1)c1ccc(F)cc1" is ____.
Data returned: -8

Data request: I would be grateful if you could share the reported growth inhibition for "O=C1c2ccccc2-c2nc3ccccc3nc21" .
Data returned: -15

Data request: # get_value(readout='growth inhibition', item= CC(=O)OC1CCC2(C)C(=CCC3C4CCC5(OC6CC(C)CN(C(C)=O)C6C5C)C(C)=C4C(=O)C32)C1 (centres undefined) )
Data returned: -31

Data request: So what does the record say about growth inhibition for "Cc1ccc(S(=O)(=O)NNC(=S)Nc2cccc3ccccc23)cc1" ?
Data returned: -4

====

# assay.procedure: NCI Yeast Anticancer Drug Screen. Data for the rad50 strain (AID 155);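 further: 0% = growth of vehicle-only cultures of the same strain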
# condition.context: S. cerevisiae rad50 strain growth inhibition; at 5.0 µM (retest, dose inferred, filed as 0.5); hits give high values
This is part of a sample that, as a whole, favours compounds with a hit. Of some 79,000 tested, about 15% had one in any assay.
Label Yes when growth inhibition is at or above 10%; otherwise label No.

Before answering, review these 6 worked examples.
• COc1cc(C2C3=C(COC3=O)Oc3cc4c(cc32)OCO4)ccc1O (stereo unspecified) = Yes
• CC(=O)Oc1cc(-c2cc(OC(C)=O)c(OC(C)=O)c3ccccc23)c2ccccc2c1OC(C)=O = Yes
• COc1cc2c(cc1[N+](=O)[O-])C(=O)C(Br)(Br)CCC2 = No
• c1ccc2c(c1)-c1nc3ccccc3cc1C2N1CCOCC1 (stereo unspecified) = No
• CNC(=O)OCc1c(COC(=O)NC)c(-c2ccc(-c3ccccc3)cc2)n(C)c1C = Yes
• CC(C)(Br)C(=O)/C=C/c1ccc(Cl)c(Cl)c1 = Yes

Data request: Reported growth inhibition at or above 10%? "Clc1cccc(C(Nc2nncs2)Nc2nncs2)c1Cl"
Data returned: No

Data request: Please tell me: is the molecule "COc1ccc2ccc3ccccc3c2c1C=O" at or over 10% in terms of growth inhibition?
Data returned: No

Data request: Threshold query (growth inhibition >= 10%) on "NNc1c(F)c(F)cc(F)c1F"
Data returned: No

====

Readings of growth inhibition for the listed compounds
# assay.procedure: NCI Yeast Anticancer Drug Screen. Data for the bub3 strain (AID 167)
# condition.context: S. cerevisiae bub3 mutant strain, at 11.0 µM, hits give high values
This is part of a sample that, as a whole, favours compounds with a hit. Of some 79,000 tested, about 15% had one in any assay.
Give the value in % but do not write % after it.

Before answering, review these 3 worked examples.
- CC1=NN(c2cccc(Cl)c2)C(=O)C1: -32
- CC(C)(C)c1nc2c(o1)C(=O)c1ccccc1C2=O: 36
- COc1ccc(NC(=S)N/N=C(\c2ccccc2)c2ccccn2)cc1: 4

Data request: What does the data say about its growth inhibition? Entry: "O=Cc1cccc2ccc3ccccc3c12"
Data returned: -3

Data request: What value of growth inhibition has been recorded for this entry: "O=C(/C=C\c1ccc(Cl)cc1Cl)c1cccs1"
Data returned: 38

Data request: Request the reported growth inhibition associated with "O=C(OCC=C1CCCC1)c1cc([N+](=O)[O-])cc([N+](=O)[O-])c1"
Data returned: -1

Data request: For the compound shown here, "CC(C)C1=CC2=C[C@H](O)[C@H]3C(C)(C)CCC[C@]3(C)C2=C(O)C1=O" , give the reported growth inhibition.
Data returned: 79

Data request: Which growth inhibition reading was recorded for the compound CCOC(=O)C(NC(=O)c1ccccc1)(N1CCN(c2cc3c(cc2F)c(=O)c(C(=O)O)cn3C2CC2)CC1)C(F)(F)F (stereo not drawn) ?
Data returned: 3

Data request: Reported growth inhibition, compound "CC(=O)OCc1ccc(O)c(C=O)c1" : ____
Data returned: -7

Data request: Which growth inhibition is reported for this compound? "Cc1cc(O)cc(O)c1N=Nc1ccc([N+](=O)[O-])cc1"
Data returned: 43

====

# assay.procedure: NCI Yeast Anticancer Drug Screen. Data for the rad18 strain (AID 177)
# condition.context: S. cerevisiae rad18 mutant growth inhibition; at 3.7 µM; hits give high values
About 79,000 compounds went through this panel and 15% of them were active in at least one assay; those are over-represented in the sample as a whole.
Documented growth inhibition across a set of compounds
Give just the number in %; leave the unit off.

Data request: Can you look up the measured growth inhibition of "COc1ccc(-c2cn(-c3ccc(I)cc3)c3ncnc(N)c23)cc1" for me?
Data returned: -9

Data request: Recorded growth inhibition for "N#C/C(=C\c1cccc(OCc2ccccc2)c1)c1ccc([N+](=O)[O-])cc1" , please?
Data returned: -29

Data request: What measured growth inhibition goes with C=C1CC(Cn2cc(Br)c(=O)[nH]c2=O)(c2ccc(-c3ccccc3)cc2)OC1=O (configuration not stated) ?
Data returned: 10

Data request: Please report the recorded growth inhibition for "O=S(=O)(CCCl)c1ccccc1Cl" .
Data returned: 13

Data request: // returns reported growth inhibition for input "O=CC=C(c1ccccc1)c1ccccc1"
Data returned: 26

Data request: Param item = "NNc1c(F)c(F)cc(F)c1F" ; retrieve measured growth inhibition.
Data returned: -20

Data request: // growth inhibition lookup, key: "c1ccc2c(c1)C(=NCCCN1CCCCCC1)c1cccn1-2"
Data returned: 1

====

Known growth inhibition of a selection of compounds
# assay.procedure: NCI Yeast Anticancer Drug Screen. Data for the rad50 strain (AID 155);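 further: 0% = growth of vehicle-only cultures of the same strain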
# condition.context: S. cerevisiae rad50 strain growth inhibition; at 33.0 µM; hits give high values
About 79,000 compounds went through this panel and 15% of them were active in at least one assay; those are over-represented in the sample as a whole.
Numbers only; they are read as %.

Some entries whose results are on file:
- O=c1ssc2ncccc12: 97
- CCC#CCCCOC(=O)c1cc([N+](=O)[O-])cc([N+](=O)[O-])c1: 87
- OC1(c2ccccc2)CSC2=Nc3ccccc3C3CCN1N23 (stereo not drawn): -20
- CN(Cc1cnc2nc(N)nc(N)c2n1)c1ccc(C(=O)N[C@@H](CCC(=O)O)C(=O)O)cc1: 38

Data request: For the compound "CC(=O)[O][Bi]([c]1ccccc1)[c]1ccccc1" , what growth inhibition is on record?
Data returned: 95

Data request: I am curious: what growth inhibition value has been reported for "O=C(CC(=O)n1nc(-c2ccccc2)c(N=Nc2ccccc2C(=O)O)c1-c1ccccc1)Nc1ccc(Cl)cc1" ?
Data returned: 2

Data request: Field request: growth inhibition | item: "Cn1ccnc1Oc1ccc(Cl)cc1"
Data returned: 76

Data request: Look at this compound and give its reported growth inhibition. CCCCCCCCCCCCCCCCCCN(C)CC(COP(=O)([O-])OCC[N+](C)(C)C)OC (stereo not drawn)
Data returned: 98

Data request: Please report the recorded growth inhibition for "CCN(CC)CCN1C(=O)c2cccc3cc(OC)cc(c23)C1=O" .
Data returned: 90

====

# assay.procedure: NCI Yeast Anticancer Drug Screen. Data for the CLN2oe strain (AID 163);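 further: 0% = growth of vehicle-only control cultures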
# condition.context: S. cerevisiae CLN2oe strain, at 100.0 µM, hits give high values
The panel holds about 79,000 compounds, 15% with a hit somewhere; the sample as a whole holds those more often.
parameter: growth inhibition (%)
Numbers only; they are read as %.

• CN(C)C[C@H]1CC[C@@H](CN(C)C)C1=O = 64
• N#Cc1c(N)[nH]c2ccc(Sc3ccccc3)cc12 = 96
• FC(F)(F)c1nc2nc(Cl)c(Cl)nc2n1CCCN1CCOCC1 = 57
• COc1cc(C2SCC(=O)N2c2ccc(-c3ccc(-n4c(-c5ccccc5)nc5ccccc5c4=O)cc3)cc2)cc(OC)c1OC (stereo unspecified) = -2
• Cc1ccc(S/N=C\c2ccccc2O)cc1 = 4

Moving on to the next compound.
Data request: Consider the compound shown here: "NC1=NS(=O)(=O)N=C(N)C1=Cc1ccc([N+](=O)[O-])o1" What is its recorded growth inhibition?
Data returned: 99
